- Test system: HCV genotype 1b
- test.name: HCV 1b replicon luciferase assay
- Assay type: cell-based
- measurement.context: Hepatitis C virus, Huh-7, 48 h, Table 1; Huh7 HCV 1b replicon, luciferase reporter, 48 hours; read-out: 1b EC50
readout.name: log10 EC50 (log10 of the value in µM)
Short version: log10 scale, EC50, µM.

Prompt: Quick check: log10 EC50 of CC(C)Cn1nc(C(=O)NC2CCNCC2)c2ccc(N3CCCCCC3)nc21 [compound 852] ?
Response: 0.46

Prompt: Please answer likewise for Cn1nc(C(=O)NC2CCNCC2)c2ccc(N3CCCC(c4ccccc4)CC3)nc21 (stereo not drawn) [compound 1026]
Response: 0.20

Prompt: # repeat for Cn1nc(-c2c[nH]c(CC3CCNCC3)n2)c2ccc(N3CCCCCC3)nc21 [compound 1054]
Response: 0.93

Prompt: // query: O=C(NC1CCNCC1)c1n[nH]c2nc(OC3CCCCC3)ccc12 [compound 729]
Response: 0.26

Prompt: // same read-out, input: O=C(NCC1CCCNC1)c1n[nH]c2nc(N3CCCCCC3)ccc12 (stereo not drawn) [compound 703]
Response: 0.34

Prompt: Item: CCC(CC)Oc1ccc2c(NC(=O)CC3CCNCC3)nn(C)c2n1 [compound 953]
Response: 0.81

Prompt: Entry to check: Cn1nc(C(=O)NC2CCNCC2)c2ccc(OCc3ccccc3Br)nc21 [compound 1065]
Response: 0.52

Prompt: Next compound up: Cn1nc(C(=O)NC2CCNCC2)c2ccc(N3CCCCCC3)nc21.O=C(O)C(F)(F)F.O=C(O)C(F)(F)F [compound 697]
Response: -0.17

Prompt: Would you kindly repeat that for Cn1nc(C(=O)NC2CCN(CCN3CCCC3)CC2)c2ccc(NC3CCCCC3)nc21 [compound 1581] ?
Response: 0.52
